# System: Zymoseptoria tritici
# experiment.description: Leaf Blotch of Wheat fungicidal activity (SEPTTR)
# Assay type: in vivo
# condition: 72 h, Low Volume Cereal Activity at 121.5 g/Ha, 3 Day Curative, read-out: SEPTTR 3DC (Wheat Leaf Blotch, 3 Day Curative)
measure: pest or weed control at 121.5 g/ha

compound | test.value
COc1ccnc(C(=O)N[C@H](C)C(=O)O[C@H](C)[C@@H](Oc2ccccc2)c2ccccc2)c1OCOC(C)=O [Example 186] | < 80%
COc1ccnc(C(=O)N[C@@H](C)C(=O)O[C@@H](C)[C@H](Oc2ccccc2)c2ccc(F)cc2OC(C)=O)c1OC(C)=O [Example 267] | < 80%
COc1ccnc(C(=O)N[C@@H](C)C(=O)O[C@@H](C)[C@H](Oc2ccccc2)c2ccc(F)cc2)c1OC(C)=O [Example 242] | > 80%
